B1: glmS ribozyme (parent)
chain: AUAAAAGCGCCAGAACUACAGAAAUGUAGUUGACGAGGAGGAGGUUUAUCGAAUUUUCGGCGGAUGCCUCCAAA

Variants of: B1
assay.name: self-cleavage kobs at 40 uM GlcN6P; higher = faster cleavage; RNA array
condition.summary: with glucosamine-6-phosphate
Variants at the floor of the assay were thinned out.
# self-cleavage kobs at 40 uM GlcN6P values compiled below

Answered examples (3):
[[record]]
mutation_key = "G29U A42U"
result = "< 1e-05 s⁻¹"

[[record]]
mutation_key = "G32C G40A"
result = "< 1e-05 s⁻¹"

[[record]]
mutation_key = "G40U G60C"
result = "< 1e-05 s⁻¹"


Shifting focus to the variant that follows.
Input line: Item A6G U57G has what recorded self-cleavage kobs at 40 uM GlcN6P?
Output line: < 1e-05 s⁻¹
